system: IGROV-1; assay: NCI tumour cell line growth inhibition, 48 h
Calls of active or inactive are those of the source. Cut-off read from the data, not from the text of the source: active = GI50 up to about 1.1 µM and inactive = higher.
Your response should consist of one outcome taken from active, inactive

Cc1cccc2c1NC(=S)[C@@H]1CCCN1C2=O = inactive

For CCC/C=C/C=C/C(=O)OC1C(C)C2(O)C3C=C(C)C(=O)C3CC(COC(C)=O)=CC2C2C(C)(C)C12OC(=O)C(C)C (stereo not drawn) , which call appears in the assay record?
inactive

What did this assay record as the result for CN1C(=O)CCC1(O)C1C=CC=CC1 (stereo not drawn) ?
inactive

What call does the record list for COc1ccc(C2c3cc4c(cc3OC3(OC)COC(=O)C23)OCO4)c(OC)c1 (stereo not drawn) ?
inactive

Give the logged outcome of this assay for the following compound: COC(=O)CCC1(NS(=O)(=O)c2ccc(C)cc2)CCC(C(C)(C)C)CC1 (stereo not drawn)
inactive

Which outcome was entered for the compound O=C(/C=C\c1ccc(/C=C/C(=O)Nc2cccc(C3=NCCCN3)c2)cc1)Nc1cccc(C2=NCCCN2)c1 in this test?
inactive

Per the records of this test, what outcome belongs to CC[C@H](C)[C@H]1NC(=O)[C@@H](NC(=O)[C@@H](CC(C)C)N(C)C(=O)C2CCCN2C(=O)[C@H](C)O)[C@@H](C)OC(=O)[C@H](Cc2ccccc2)N(C)C(=O)[C@@H]2CCCN2C(=O)[C@H](CC(C)C)NC(=O)[C@@H](C)C(=O)[C@H](C(C)C)OC(=O)C[C@@H]1O (stereo partly drawn) ?
active

Any idea what this test logged for C[N+]1(C)C/C(=C\c2ccccc2)C(=O)/C(=C/c2ccccc2)C1 ?
inactive

Hello, the source for this data is ChEMBL document CHEMBL1201862, in case you need it.
